Let's look at some compounds and their measured IC50.
Target: SHP-2 enzyme (Met1-Leu525) (Homo sapiens (Human), UniProt Q06124)
Sequence (Q06124 1-525): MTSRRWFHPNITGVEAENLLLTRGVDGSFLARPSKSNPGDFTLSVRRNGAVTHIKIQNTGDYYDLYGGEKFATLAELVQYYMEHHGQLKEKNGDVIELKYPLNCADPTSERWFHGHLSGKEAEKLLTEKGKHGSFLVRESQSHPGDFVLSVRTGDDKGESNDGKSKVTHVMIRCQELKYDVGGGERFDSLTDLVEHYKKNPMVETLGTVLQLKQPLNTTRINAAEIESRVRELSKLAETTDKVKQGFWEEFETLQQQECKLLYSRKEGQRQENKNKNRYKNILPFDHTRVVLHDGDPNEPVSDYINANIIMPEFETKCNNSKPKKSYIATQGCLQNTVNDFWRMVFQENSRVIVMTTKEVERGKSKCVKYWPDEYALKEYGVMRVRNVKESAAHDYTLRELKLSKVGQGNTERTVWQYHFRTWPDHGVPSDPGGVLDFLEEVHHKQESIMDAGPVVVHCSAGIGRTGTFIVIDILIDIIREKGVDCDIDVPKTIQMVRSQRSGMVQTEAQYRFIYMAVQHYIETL
Experiment: SHP2 inhibition enzymatic assay
Type: biochemical
Conditions: 0.5 nM SHP-2 activated by 500 nM IRS1 peptide, 75 μM DiFMUP substrate; read-out: SHP2wt-IC50

Examples from the recorded data:
Cc1csc([C@@]2(CN)[C@@H]3CN(c4cnc5c(-c6ccnc(N)c6Cl)n[nH]c5n4)C[C@@H]32)n1 | < 500 nM
Cc1nc2ccc(-c3n[nH]c4nc(N5CC[C@@H]6[C@H](C5)[C@@]6(CN)c5ccc(F)cn5)cnc34)c(Cl)c2s1 | < 500 nM

Then there is this compound:
Recorded IC50 for NC[C@]1(c2ccccc2F)[C@@H]2CCN(c3cnc4c(-c5ccc(O)nc5C(F)(F)F)n[nH]c4n3)C[C@@H]21 , please?
< 500 nM
